# maps each entry to its phosphorylation enrichment
Molecular target: EPHB1 (UniProt P54762)
Sequence (P54762 whole entry, looked up): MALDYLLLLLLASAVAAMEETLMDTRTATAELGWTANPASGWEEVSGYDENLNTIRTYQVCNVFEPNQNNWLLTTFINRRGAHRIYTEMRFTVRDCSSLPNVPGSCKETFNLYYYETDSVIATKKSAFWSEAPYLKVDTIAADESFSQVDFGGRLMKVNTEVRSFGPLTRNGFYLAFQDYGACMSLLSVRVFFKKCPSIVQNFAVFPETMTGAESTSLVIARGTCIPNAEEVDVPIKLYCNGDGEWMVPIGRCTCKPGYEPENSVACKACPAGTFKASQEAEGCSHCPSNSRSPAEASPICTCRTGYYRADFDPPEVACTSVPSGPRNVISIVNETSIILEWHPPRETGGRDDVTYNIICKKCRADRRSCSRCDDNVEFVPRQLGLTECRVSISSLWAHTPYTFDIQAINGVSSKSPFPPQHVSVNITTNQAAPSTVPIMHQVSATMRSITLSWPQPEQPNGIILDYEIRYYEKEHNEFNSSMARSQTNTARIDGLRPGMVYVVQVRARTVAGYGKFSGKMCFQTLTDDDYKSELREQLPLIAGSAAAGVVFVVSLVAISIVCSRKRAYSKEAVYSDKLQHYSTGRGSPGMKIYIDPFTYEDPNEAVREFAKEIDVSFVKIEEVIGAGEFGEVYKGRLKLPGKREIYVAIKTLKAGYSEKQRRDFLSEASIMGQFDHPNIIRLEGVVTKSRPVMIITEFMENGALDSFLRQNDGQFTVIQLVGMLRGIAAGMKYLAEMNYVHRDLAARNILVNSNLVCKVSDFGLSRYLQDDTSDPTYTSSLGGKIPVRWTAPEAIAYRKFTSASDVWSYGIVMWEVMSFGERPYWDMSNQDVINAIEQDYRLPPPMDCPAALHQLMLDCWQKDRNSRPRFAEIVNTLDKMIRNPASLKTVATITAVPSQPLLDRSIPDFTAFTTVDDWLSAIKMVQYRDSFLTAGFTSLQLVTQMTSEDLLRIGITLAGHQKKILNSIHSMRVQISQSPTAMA
Experiment: phosphorylation enrichment, bacterial display (enrichment ratio); higher = better substrate or ligand; peptides without Tyr show the background;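 note: 11-residue human phosphosite peptides and single-mutation variants displayed on the E. coli surface, counted by deep sequencing, each peptide's frequency after selection divided by its frequency in the unselected input library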;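 note: frequency after pTyr selection over input frequency; kinase dosed for 20-30% of maximal phosphorylation in three min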

IN: Param item = KLKRSYCSPDI [USP8_Y717_S718C] ; retrieve measured phosphorylation enrichment.
OUT: 0.36

IN: Again, but for TAPYNYSYIFK [RAB14_Y8]
OUT: 9.69

IN: Next: NQDRTYYERVR [SPEN_Y632_S635R]
OUT: 0.411

IN: Quick one: LWQSIYNLDAE [TNNT2_Y251_E254D]
OUT: 0.883

IN: Next up: RLCQDYDIIGP [ANK1_Y1073_T1075I]
OUT: 10

IN: And the next one, VVTFSYKPPGN [RBL2_Y544] ?
OUT: 0.455

IN: Same question, KNITEYCRDLI [RECQL_Y492] this time
OUT: 0.544

IN: For CSEETYRLMLQ [RET_Y981_M980T] then?
OUT: 0.65

IN: Also, MSRDVYSTDCY [NTRK2_Y702_Y706C] please.
OUT: 0.718

IN: Now the same for IKNSGYISQYL [EIF2AK3_Y585_R588Q]
OUT: 0.414

IN: Query VCRHNYGVVES [HLA-DRB1_Y112_Y107V] next
OUT: 0.82

IN: Repeat for the following sequence: DGDTRYSTFSE [TKTL1_Y318]
OUT: 0.609

IN: Queued: KTTILHKLKLG [ARF1_Y35_Y35H]
OUT: 0.4

IN: Now consider GGTPLYMDRQG [AGXT_Y194] .
OUT: 0.465

These entries and their values trace back to the supplement of paper PMC10065799.
